# Test system: ovariectomised rats
# assay.comment: Prevention of ovariectomy-induced bone loss in rats (anti-osteoporosis test, pQCT trabecular bone mineral density)
# Assay type: in vivo, rat (female Wistar)
# settings: Rattus norvegicus, po, 672 h, read-out: Osteoporosis ED50
# ED50 per entry

Worked set:
Q: // returns reported ED50 for input CCC[C@H]1C[C@@H]2C[C@H]3[C@@H]4CCC5=CC(=O)CC[C@@H]5[C@H]4CC[C@]3(C)[C@]2(O)C1 [Code 37977]
A: > 1 mg/kg

Q: // returns reported ED50 for input CC[C@H]1C[C@@]2(C)[C@@H](C[C@H]3CCCC[C@]32O)[C@@H]2CCC3=CC(=O)CC[C@@H]3[C@@H]12 [Code 37943]
A: 0.4 mg/kg

Q: // returns reported ED50 for input C[C@H]1C[C@@H]2C[C@H]3[C@@H]4CCC5=CC(=O)CC[C@@H]5[C@H]4CC[C@]3(C)[C@]2(O)C1 [Code 38541]
A: > 1 mg/kg

Q: // returns reported ED50 for input C[C@]12CC[C@H]3[C@@H](CCC4=CC(=O)CC[C@@H]43)[C@@H]1C[C@H]1CCCC[C@]12O [Code 37518]
A: > 2 mg/kg

Field: next compound
Q: // returns reported ED50 for input C[C@H]1C[C@@H]2C[C@H]3[C@H]4[C@H](CC[C@]3(C)[C@]2(O)C1)[C@H]1CCC(=O)C=C1C[C@H]4C [Code 38049]
A: > 1 mg/kg
